The measured values listed here are drawn from patent US11254668B2.

study target: JAK1 (Homo sapiens (Human), UniProt P23458)
Sequence (P23458 875-1153): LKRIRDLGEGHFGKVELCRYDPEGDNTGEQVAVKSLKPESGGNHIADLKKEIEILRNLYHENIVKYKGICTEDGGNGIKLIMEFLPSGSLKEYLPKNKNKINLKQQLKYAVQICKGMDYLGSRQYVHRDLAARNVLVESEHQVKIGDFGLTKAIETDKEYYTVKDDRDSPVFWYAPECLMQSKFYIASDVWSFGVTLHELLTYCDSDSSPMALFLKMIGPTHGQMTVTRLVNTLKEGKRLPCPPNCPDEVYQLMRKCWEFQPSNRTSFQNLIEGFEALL
procedure summary: JAK Caliper Enzyme Assay at 1 mM ATP, JAK1
Type: biochemical
pIC50: −log10 of the molar value.
assay metric: pIC50

I'd like to know its pIC50. The compound in question is Cn1cc(-c2cc3ncccc3c(-c3ccn([C@]4(CC#N)C[C@@H](C#N)C4)n3)n2)c(CO)n1 [Example 135]
6.31

[1] N#CC[C@]1(n2ccc(-c3nc(-c4ccn[nH]4)cc4ncccc34)n2)C[C@H](C#N)C1 [Example 20]
[2] N#CC[C@]1(n2cc(-c3cc(-c4cn[nH]c4N)cc4ncccc34)cn2)C[C@H](C#N)C1 [Example 290]
Identify the item whose pIC50 is the smaller number: 1 or 2 Which one? Tell me its label.
2
